Target: JAK3 (Homo sapiens, UniProt P52333)
Construct: PV3855
Sequence (P52333 whole entry): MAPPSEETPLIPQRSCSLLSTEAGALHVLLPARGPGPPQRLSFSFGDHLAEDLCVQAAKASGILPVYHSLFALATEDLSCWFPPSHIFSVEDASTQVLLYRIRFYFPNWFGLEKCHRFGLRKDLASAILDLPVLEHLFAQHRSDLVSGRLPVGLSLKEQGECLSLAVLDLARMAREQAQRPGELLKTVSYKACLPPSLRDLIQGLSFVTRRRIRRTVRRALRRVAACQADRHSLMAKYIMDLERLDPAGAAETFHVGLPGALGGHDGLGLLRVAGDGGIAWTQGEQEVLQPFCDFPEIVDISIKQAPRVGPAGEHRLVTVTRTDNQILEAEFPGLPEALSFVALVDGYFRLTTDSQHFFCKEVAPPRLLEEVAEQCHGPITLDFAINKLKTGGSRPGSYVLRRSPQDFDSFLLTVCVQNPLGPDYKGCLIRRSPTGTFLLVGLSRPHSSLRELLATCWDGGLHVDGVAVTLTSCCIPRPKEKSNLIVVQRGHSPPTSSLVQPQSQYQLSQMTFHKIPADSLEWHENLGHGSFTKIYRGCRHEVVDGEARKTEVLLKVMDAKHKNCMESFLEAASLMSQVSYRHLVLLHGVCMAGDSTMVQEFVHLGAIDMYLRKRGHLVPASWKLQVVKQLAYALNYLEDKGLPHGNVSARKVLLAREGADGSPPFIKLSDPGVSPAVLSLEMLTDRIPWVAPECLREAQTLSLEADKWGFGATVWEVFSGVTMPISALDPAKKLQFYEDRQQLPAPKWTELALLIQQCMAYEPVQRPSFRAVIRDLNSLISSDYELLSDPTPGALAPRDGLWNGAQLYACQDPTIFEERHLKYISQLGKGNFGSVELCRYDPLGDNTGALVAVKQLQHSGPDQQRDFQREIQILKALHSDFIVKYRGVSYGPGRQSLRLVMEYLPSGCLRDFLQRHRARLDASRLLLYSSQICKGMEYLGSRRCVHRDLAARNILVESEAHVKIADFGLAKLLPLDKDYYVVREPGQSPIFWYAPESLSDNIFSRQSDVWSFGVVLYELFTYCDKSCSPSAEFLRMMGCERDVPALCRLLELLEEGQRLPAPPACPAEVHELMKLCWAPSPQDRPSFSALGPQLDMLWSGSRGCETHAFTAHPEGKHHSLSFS
Assay: JAK enzymatic assay (peptide mobility shift), JAK3
Settings: recombinant JAK3 1 nM, ATP 4 μM, 1 μM JAKtide peptide, 90 minutes
Parameter Measured: IC50

compound="CN(c1ncnc2[nH]ccc12)[C@H]1CC[C@H](CS(=O)(=O)NCC(C)(F)c2cccc(F)c2)CC1 (stereo partly shown) [Example 9]" parameter_measured=IC50 data_value="531 nM"
compound="CN(c1ncnc2[nH]ccc12)[C@H]1CC[C@H](CS(=O)(=O)NCCc2ccc(Cl)cc2)CC1 [Example 31]" parameter_measured=IC50 data_value="154 nM"

Task: Data request, read-out IC50, for CN(c1ncnc2[nH]ccc12)[C@H]1CC[C@H](CS(=O)(=O)NCCc2ccc(O)cc2)CC1 [Example 3]
Output: 257 nM

Task: Same again, this time with CN(c1ncnc2[nH]ccc12)[C@H]1CC[C@H](CS(=O)(=O)NCCc2ccccc2)CC1 [Example 15]
Output: 87.8 nM

====

Molecular target: JAK2 (Homo sapiens)
Construct: PV4210
Sequence (O60674 whole entry): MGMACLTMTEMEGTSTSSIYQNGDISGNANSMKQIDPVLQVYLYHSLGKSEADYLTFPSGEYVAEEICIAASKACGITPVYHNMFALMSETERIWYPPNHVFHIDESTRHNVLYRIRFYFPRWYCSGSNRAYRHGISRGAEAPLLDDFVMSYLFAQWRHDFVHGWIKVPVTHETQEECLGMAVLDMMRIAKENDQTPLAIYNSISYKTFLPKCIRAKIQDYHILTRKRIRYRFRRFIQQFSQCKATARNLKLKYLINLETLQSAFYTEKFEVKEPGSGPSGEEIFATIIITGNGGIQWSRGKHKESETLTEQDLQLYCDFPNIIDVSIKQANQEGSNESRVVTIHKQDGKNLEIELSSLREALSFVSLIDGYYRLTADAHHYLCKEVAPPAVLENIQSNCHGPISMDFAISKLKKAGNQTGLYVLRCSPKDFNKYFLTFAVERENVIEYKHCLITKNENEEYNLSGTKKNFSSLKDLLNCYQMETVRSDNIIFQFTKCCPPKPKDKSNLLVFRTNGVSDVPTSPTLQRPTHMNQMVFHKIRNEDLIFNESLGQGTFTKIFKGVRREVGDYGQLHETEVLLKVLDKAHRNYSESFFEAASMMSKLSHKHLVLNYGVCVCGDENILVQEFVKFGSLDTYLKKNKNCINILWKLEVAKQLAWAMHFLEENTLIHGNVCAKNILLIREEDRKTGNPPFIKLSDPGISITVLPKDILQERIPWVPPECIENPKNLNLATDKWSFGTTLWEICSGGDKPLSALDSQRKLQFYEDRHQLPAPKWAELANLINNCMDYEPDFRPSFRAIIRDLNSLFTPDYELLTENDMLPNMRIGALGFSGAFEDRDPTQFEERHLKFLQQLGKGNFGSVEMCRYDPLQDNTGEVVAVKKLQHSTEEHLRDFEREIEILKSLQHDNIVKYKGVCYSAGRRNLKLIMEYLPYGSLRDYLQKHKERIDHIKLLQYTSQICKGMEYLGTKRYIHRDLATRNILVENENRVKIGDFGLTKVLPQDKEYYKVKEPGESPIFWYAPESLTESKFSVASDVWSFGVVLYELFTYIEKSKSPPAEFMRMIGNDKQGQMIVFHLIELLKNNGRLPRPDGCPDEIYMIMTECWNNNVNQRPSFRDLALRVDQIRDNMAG
Experiment: JAK enzymatic assay (peptide mobility shift), JAK2
Details: recombinant JAK2 2 nM, ATP 4 μM, 1 μM JAKtide peptide, 150 minutes
Threshold check on IC50: strictly below 50 nM is satisfied; on or above 50 nM is not satisfied.

smiles_structure=Cc1ccc(NS(=O)(=O)C[C@H]2CC[C@H](N(C)c3ncnc4[nH]ccc34)CC2)cn1 class=satisfied

Task: Please check: IC50 for CC(C)c1ccc(CCNS(=O)(=O)C[C@H]2CC[C@H](N(C)c3ncnc4[nH]ccc34)CC2)c(F)c1 , strictly under 50 nM or not?
Output: not satisfied

Task: Item: CN(Cc1cnccn1)S(=O)(=O)C[C@H]1CC[C@H](N(C)c2ncnc3[nH]ccc23)CC1
Output: not satisfied

Task: Next up: CN(c1ncnc2[nH]ccc12)[C@H]1CC[C@H](CS(=O)(=O)NCCc2ccc(C(F)(F)F)cc2F)CC1
Output: not satisfied

Task: What do we get for Cc1ccc(CCNS(=O)(=O)C[C@H]2CC[C@H](N(C)c3ncnc4[nH]ccc34)CC2)c(C)c1 ?
Output: satisfied

Task: Thanks! And CN(c1ncnc2[nH]ccc12)[C@H]1CC[C@H](CS(=O)(=O)NCc2cccnc2)CC1 ?
Output: not satisfied

Task: Ok, now CN(c1ncnc2[nH]ccc12)[C@H]1CC[C@H](CS(=O)(=O)Nc2ccc(CC#N)cc2)CC1
Output: satisfied

Task: Subsequent entry: COc1ccccc1CCNS(=O)(=O)C[C@H]1CC[C@H](N(C)c2ncnc3[nH]ccc23)CC1
Output: satisfied

Task: Quick one: CN(c1ncnc2[nH]ccc12)[C@H]1CC[C@@H](CS(=O)(=O)NCc2ccccc2)CC1
Output: not satisfied

Task: Item: CN(c1ncnc2[nH]ccc12)[C@H]1CC[C@H](CS(=O)(=O)NCCC(F)=C(F)F)CC1
Output: not satisfied

Task: Same lookup for COc1ccc(NS(=O)(=O)C[C@H]2CC[C@H](N(C)c3ncnc4[nH]ccc34)CC2)cn1 , please.
Output: satisfied

Task: Another compound to look at: CN(c1ncnc2[nH]ccc12)[C@H]1CC[C@H](CS(=O)(=O)Nc2ccn[nH]2)CC1
Output: satisfied

Task: Continue with CN(c1ncnc2[nH]ccc12)[C@H]1CC[C@H](CS(=O)(=O)NC2CC2)CC1
Output: satisfied

Task: Try the compound Cc1cccc(CCNS(=O)(=O)C[C@H]2CC[C@H](N(C)c3ncnc4[nH]ccc34)CC2)n1
Output: not satisfied
